# experimental_target: T1, Rb^P S751Y (human, UniProt P06400 380-788, S751Y)
# T1 construct: also called variant 72
# T1 sequence (looked up): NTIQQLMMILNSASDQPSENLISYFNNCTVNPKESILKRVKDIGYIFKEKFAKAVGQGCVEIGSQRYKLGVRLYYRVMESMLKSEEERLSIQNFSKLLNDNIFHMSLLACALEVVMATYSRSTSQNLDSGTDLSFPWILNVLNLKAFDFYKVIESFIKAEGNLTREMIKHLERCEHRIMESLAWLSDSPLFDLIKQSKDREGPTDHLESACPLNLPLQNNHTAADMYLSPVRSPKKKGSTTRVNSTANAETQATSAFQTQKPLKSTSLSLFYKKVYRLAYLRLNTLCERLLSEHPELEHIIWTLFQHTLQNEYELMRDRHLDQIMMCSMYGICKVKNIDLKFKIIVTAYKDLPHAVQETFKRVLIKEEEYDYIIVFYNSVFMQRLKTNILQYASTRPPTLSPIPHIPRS
# procedure_text: fluorescence polarisation; 25 °C after warming to 37 °C (7 min ramp, 2 min at 37 °C), 1 min on ice and 3 min at 25 °C; unlabeled Rb^P against 1.5 nM TMR-E2F1^TD or 7.5 nM TMR-E7^LxCxE; 25 mM Tris pH 8.0, 200 mM NaCl, 1 mM DTT, 0.1% Tween-20; apparent Kd
# experimental_context: both partners purified
No end group written: not given here. TMR = tetramethyl rhodamine dye

binder	scale_unit	Kd
{TMR}-GEGIRDLFDCDFGDLTPLD (also called E2F^TD; source: synthetic peptide, bought: GenScript) [TMR-E2F1^TD, peptide of the E2F1 transactivation domain]	nM	28
DLYCYEQLN (also: TMR label, position not given here, source: synthetic peptide, bought: GenScript) [TMR-E7^LxCxE, LxCxE peptide of the E7 oncoprotein from HPV]	nM	119
